- target_desc: T1, alpha-s1 casein from Bos taurus
- T1 chain: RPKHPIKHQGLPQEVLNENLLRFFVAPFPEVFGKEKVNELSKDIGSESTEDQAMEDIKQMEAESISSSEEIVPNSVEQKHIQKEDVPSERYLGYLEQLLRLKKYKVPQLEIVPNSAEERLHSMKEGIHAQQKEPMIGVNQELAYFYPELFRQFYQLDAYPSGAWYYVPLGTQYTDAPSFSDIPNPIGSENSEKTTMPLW
value_kind: (αSN1-1)/(αSN1), 6 hours, 11° C.

Form: protein = camel chymosin variant #155 (D290Q) (protein) GKVAREPLTSYLDSQYFGKIYIGTPPQEFTVVFDTGSSDLWVPSIYCKSNVCKNHHRFDPRKSSTFRNLGKPLSIHYGTGSMEGFLGYDTVTVSNIVDPNQTVGLSTEQPGEVFTYSEFDGILGLAYPSLASEYSVPVFDNMMDRHLVARDLFSVYMDRNGQGSMLTLGAIDPSYYTGSLHWVPVTLQQYWQFTVDSVTINGVAVACVGGCQAILDTGTSVLFGPSSDILKIQMAIGATENRYGEFDVNCGNLRSMPTVVFEINGRDYPLSPSAYTSKDQGFCTSGFQGQNNSELWILGDVFIREYYSVFDRANNRVGLAKAI ; (αSN1-1)/(αSN1), 6 hours, 11° C. = 0.7

Form: protein = camel chymosin variant #151 (D290A) (protein) GKVAREPLTSYLDSQYFGKIYIGTPPQEFTVVFDTGSSDLWVPSIYCKSNVCKNHHRFDPRKSSTFRNLGKPLSIHYGTGSMEGFLGYDTVTVSNIVDPNQTVGLSTEQPGEVFTYSEFDGILGLAYPSLASEYSVPVFDNMMDRHLVARDLFSVYMDRNGQGSMLTLGAIDPSYYTGSLHWVPVTLQQYWQFTVDSVTINGVAVACVGGCQAILDTGTSVLFGPSSDILKIQMAIGATENRYGEFDVNCGNLRSMPTVVFEINGRDYPLSPSAYTSKDQGFCTSGFQGANNSELWILGDVFIREYYSVFDRANNRVGLAKAI ; (αSN1-1)/(αSN1), 6 hours, 11° C. = 1
